systemName: T1, thyroid stimulating hormone receptor (full length human TSHR) (human, UniProt P16473 22-764)
T1 construct: Full length TSHR coated onto plastic tubes (TSHR coated tubes, as in WO2004/050708A2); also called TSH receptor
measurementProtocol: competitor ^125I-K1-70 IgG, TSHR coated tubes; 10 µg/mL in assay buffer
Overview of reported Inhibition of binding (%) across a group of binders:
Report field: quantity (unit follows the number).

A selection of reference data follows.
{"columns": ["binder", "Inhibition of binding (%)"],
 "data": [
  ["K1-18 Fab (Fab, V domains shown) VH: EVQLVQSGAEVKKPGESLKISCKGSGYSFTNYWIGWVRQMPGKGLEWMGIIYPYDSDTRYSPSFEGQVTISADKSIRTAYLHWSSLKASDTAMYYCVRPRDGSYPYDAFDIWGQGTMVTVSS VL: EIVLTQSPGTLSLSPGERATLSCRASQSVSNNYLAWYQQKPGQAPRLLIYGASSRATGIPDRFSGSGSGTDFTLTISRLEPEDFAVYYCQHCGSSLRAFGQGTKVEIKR", "81.9%"],
  ["K1-70 IgG (antibody, V domains shown, Human IgG1 lambda purified from hetero-hybridoma supernatant) VH: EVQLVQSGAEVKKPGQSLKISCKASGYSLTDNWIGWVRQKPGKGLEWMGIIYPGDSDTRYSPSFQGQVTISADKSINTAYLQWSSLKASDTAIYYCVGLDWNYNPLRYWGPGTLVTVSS VL: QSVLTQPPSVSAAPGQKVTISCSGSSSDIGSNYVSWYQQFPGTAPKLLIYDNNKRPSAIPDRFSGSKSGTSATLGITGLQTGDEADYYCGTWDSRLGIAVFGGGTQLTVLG", "92.3%"],
  ["K1-70 Fab (Fab, V domains shown) VH: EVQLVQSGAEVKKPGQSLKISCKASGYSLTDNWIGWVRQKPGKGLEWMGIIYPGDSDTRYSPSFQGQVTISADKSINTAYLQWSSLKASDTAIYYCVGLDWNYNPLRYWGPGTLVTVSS VL: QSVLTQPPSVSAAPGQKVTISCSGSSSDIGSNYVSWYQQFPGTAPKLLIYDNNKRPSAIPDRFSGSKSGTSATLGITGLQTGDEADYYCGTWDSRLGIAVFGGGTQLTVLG", "89.8%"]
]}

# context switch: different binder, same Inhibition of binding (%)
Returns the measured Inhibition of binding (%) for the input binder. Input: K1-18 IgG (antibody, V domains shown, Human IgG1 kappa purified from hetero-hybridoma supernatant; it is not part of the secreted protein; also called human monoclonal TSHR autoantibody K1-18 (stimulating)) VH: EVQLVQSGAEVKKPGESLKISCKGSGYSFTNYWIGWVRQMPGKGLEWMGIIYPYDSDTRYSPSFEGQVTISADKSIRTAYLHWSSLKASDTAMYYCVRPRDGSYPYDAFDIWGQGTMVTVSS VL: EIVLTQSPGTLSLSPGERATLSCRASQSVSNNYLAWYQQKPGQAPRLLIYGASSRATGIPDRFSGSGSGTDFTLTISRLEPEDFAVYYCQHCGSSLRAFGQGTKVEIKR 91.8%
